Target or system: Cytochrome P450 2C19 (Homo sapiens) (UniProt P33261)
Sequence (P33261 whole entry, looked up): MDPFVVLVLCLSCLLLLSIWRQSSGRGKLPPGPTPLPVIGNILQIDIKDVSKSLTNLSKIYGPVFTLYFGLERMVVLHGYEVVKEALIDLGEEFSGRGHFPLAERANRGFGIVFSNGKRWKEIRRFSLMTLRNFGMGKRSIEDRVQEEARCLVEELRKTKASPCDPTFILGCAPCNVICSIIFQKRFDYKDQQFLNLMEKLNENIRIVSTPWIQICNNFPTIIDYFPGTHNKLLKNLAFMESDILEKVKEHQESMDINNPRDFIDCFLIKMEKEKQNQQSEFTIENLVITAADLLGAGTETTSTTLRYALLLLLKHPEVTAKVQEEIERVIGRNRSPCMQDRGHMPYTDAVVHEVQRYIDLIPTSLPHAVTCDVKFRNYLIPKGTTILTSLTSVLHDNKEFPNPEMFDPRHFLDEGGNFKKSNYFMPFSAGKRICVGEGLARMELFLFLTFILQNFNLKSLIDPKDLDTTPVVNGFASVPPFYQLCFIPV
Assay protocol: Cytochrome P450 Family 2 Subfamily C Member 19 (CYP2C19) small molecule antagonists: luciferase reporter qHTS assay (AID 1671197); note: nearly all actives have a fitted effect of over 65% in size
Stated conditions: P450-Glo CYP2C19 enzyme, luciferin luminescence, 1 h; series mostly up to 115 µM
Inconclusive results are not listed. Activity calls are given as the source filed them. Calls come from the whole dose curve; as a rule, active = well fitted inhibition curve with a large enough effect in the repeat runs; inconclusive = weak or mixed curves; inactive = no such curve, though single readings can be large or run the other way.
# output must be one of active, inactive

[Q] Any idea what this test logged for `Cc1cccc(C(=O)O)c1[N+](=O)[O-]` ?
[A] inactive

[Q] Consider next the compound `C=C[C@@H](C)CCC=C(C)C` in the same way.
[A] inactive

[Q] Consider next the compound `CC(C)SCc1ccco1` in the same way.
[A] inactive

[Q] Consider next the compound `CCCCCCCCCCC` in the same way.
[A] inactive

[Q] Consider next the compound `C/C=C(\C)C(=O)OCC/C=C\CC` in the same way.
[A] inactive

[Q] Consider next the compound `Cc1nc2n(c(=O)c1CCN1CCC(C(=O)c3ccc(F)cc3)CC1)CCS2` in the same way.
[A] inactive

[Q] Consider next the compound `O=c1cc(O)c(Cl)c[nH]1` in the same way.
[A] inactive

[Q] Consider next the compound CC1=NN(c2ccc(S(=O)(=O)O)cc2)C(=O)C1N=Nc1ccccc1 (centres undefined) in the same way.
[A] inactive

[Q] Consider next the compound `COC(=O)CCC(=O)O` in the same way.
[A] inactive

[Q] Consider next the compound `Cc1cc(C)cc([N+](=O)[O-])c1` in the same way.
[A] inactive

[Q] Consider next the compound `Cc1ccccc1C` in the same way.
[A] active

[Q] Consider next the compound `O=C(O)c1ccc(OCCN2CCCCC2)cc1` in the same way.
[A] inactive

[Q] Consider next the compound `CO/N=C(/C(=O)N[C@@H]1C(=O)N2C(C(=O)O)=C(Cn3nnc(C)n3)CS[C@H]12)c1csc(N)n1` in the same way.
[A] inactive

[Q] Consider next the compound `Nc1cc(S(=O)(=O)O)ccc1S(=O)(=O)O` in the same way.
[A] inactive

---

Assay protocol: qHTS assay to identify small molecule agonists of H2AX - cell viability counter screen (AID 1224847);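 note: wild-type CHO-K1 cells; top concentration of the series differs between compounds; % is set by controls: 0 for no effect and ±100 for the full control effect; nearly all actives have a fitted effect of over 30% in size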
Stated conditions: CHO-K1 viability, CellTiter-Glo luminescence, 3 h; series mostly up to 154 µM
Excerpt: National Center for Advancing Translational Sciences [NCATS] NIH Chemical Genomics Center [NCGC] U.S. Environmental Protection Agency [EPA] National Institutes of Environmental Health Sciences [NIEHS] National Toxicology Program [NTP] U.S. Food and Drug Administration [FDA] HTRF phospho-H2AX (Ser139) assay (Cisbio Bioassays, US) enables the quantitative detection of the histone variant H2AX when phosphorylated on serine 139. […]
Records with an inconclusive call do not appear. The source made the active and inactive calls. Calls follow the shape of the full dose curve.
Measured endpoint: activity change, negative = cytotoxicity

Check out these entries, answers already filled in.
INSERT INTO measurements (compound, measured_endpoint, val) VALUES
  ('C=CCOCC(CO)(COCC=C)COCC=C', 'activity change, negative = cytotoxicity', 'inactive'),
  ('CC(C)=CC(C)(C)C', 'activity change, negative = cytotoxicity', 'inactive'),
  ('C1=C\CC/C=C\CC/1', 'activity change, negative = cytotoxicity', 'inactive'),
  ('O=C(CN1CCN(Cc2ccc3c(c2)OCO3)CC1)N1c2ccccc2Sc2ccccc21', 'activity change, negative = cytotoxicity', 'inactive');

[Q] What value of activity change, negative = cytotoxicity has been reported for the following compound? `CCCCCCCCCCCCCCCCI`
[A] -0.0372% [at 31.6 µM] (inactive)

[Q] Consider next the compound `O=C(O)c1c(Cl)ccc(Cl)c1Cl` in the same way.
[A] inactive

[Q] Consider next the compound `BrC/C=C/CBr` in the same way.
[A] 1.6% [at 31.6 µM] (inactive)

[Q] Consider next the compound `Cc1nc2n(c(=O)c1CCN1CCC(C(=O)c3ccc(F)cc3)CC1)CCS2` in the same way.
[A] inactive

[Q] Consider next the compound `CO[Si](CCCS)(OC)OC` in the same way.
[A] inactive

[Q] Consider next the compound `O=C(/C=C/c1ccccc1)NCCO` in the same way.
[A] inactive

[Q] Consider next the compound `CNC(=O)C(c1ccccc1)c1ccccc1` in the same way.
[A] inactive

[Q] Consider next the compound `CNC(=O)NC` in the same way.
[A] inactive

[Q] Consider next the compound CN[C@@H]1[C@@H](O)[C@@H](O[C@@H]2[C@H](O)[C@H](O[C@H]3OC(CN)=CC[C@H]3N)[C@@H](N)C[C@H]2N)OCC1(C)O (stereo partly drawn) in the same way.
[A] inactive
